Ref: patent US20230399327A1

# IC50 measurements, system: HPK1 kinase (Homo sapiens (Human), UniProt Q92918)
# Sequence (Q92918 whole entry): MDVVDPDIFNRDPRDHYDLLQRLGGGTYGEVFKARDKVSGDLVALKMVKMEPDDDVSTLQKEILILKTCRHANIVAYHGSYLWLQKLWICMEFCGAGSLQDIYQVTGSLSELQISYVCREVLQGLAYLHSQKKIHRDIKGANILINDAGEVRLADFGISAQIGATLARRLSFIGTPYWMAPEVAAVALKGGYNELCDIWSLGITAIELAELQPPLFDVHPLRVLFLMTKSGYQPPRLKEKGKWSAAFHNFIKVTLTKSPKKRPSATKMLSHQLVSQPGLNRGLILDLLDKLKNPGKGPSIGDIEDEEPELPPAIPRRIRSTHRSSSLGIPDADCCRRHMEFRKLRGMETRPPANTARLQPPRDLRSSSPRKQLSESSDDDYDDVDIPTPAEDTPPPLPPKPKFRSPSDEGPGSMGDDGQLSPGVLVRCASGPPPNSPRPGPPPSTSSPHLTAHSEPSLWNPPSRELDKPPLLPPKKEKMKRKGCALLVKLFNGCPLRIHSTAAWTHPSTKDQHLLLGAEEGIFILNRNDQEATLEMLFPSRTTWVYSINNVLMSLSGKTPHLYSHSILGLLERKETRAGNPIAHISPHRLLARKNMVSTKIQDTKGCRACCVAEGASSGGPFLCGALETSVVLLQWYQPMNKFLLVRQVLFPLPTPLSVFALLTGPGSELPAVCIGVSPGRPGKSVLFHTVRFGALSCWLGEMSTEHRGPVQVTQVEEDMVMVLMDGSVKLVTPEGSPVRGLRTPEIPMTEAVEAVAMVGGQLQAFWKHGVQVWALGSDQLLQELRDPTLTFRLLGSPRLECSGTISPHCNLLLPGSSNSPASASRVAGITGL
Property name: IC50 (nM)

molecule="COc1nc2c(cc1Nc1ncc3ccnc(N4CCOCC4)c3n1)CN(C)CC2 [Example 35]" property_name=IC50 observed_measurement=1.16
molecule="C=C(C)c1cccc2cnc(Nc3cc4c(nc3OC)CCN(C)C4)nc12 [Example 16]" property_name=IC50 observed_measurement=1.74
molecule="COc1nc2c(cc1Nc1ncc3cccc(-c4ccccc4OCc4ccccc4)c3n1)CN(C)CC2 [Example 22]" property_name=IC50 observed_measurement=5.16
molecule="COCCn1c2c(cc(Nc3ncc4ccnc(N5CCC(F)(F)CC5)c4n3)c1=O)CN(C)CC2 [Example 87]" property_name=IC50 observed_measurement=19.9
molecule="COc1nc2c(cc1Nc1ncc3cccc(C4=CCN(C(=O)OC(C)(C)C)CC4)c3n1)CN(C)CC2 [Example 15]" property_name=IC50 observed_measurement=9.85
molecule="COc1nc2c(cc1Nc1ncc3cccc(NCc4ccccc4)c3n1)CN(C)CC2 [Example 38]" property_name=IC50 observed_measurement=0.41
molecule="COc1nc2c(cc1Nc1ncc3ccnc(N[C@@H](CO)C(C)C)c3n1)CN(C)CC2 [Example 92]" property_name=IC50 observed_measurement=0.23
molecule="CCOc1nc2c(cc1Nc1ncc3cccc(-c4cccnc4OC)c3n1)CN(C)CC2 [Example 47]" property_name=IC50 observed_measurement=2.77

1: CN1CCc2[nH]c(=O)c(Nc3ncc4ccnc(N5CCCCC5)c4n3)cc2C1 [Example 63]
2: COc1nc2c(cc1Nc1ncc3cccc(-c4ccn(C)n4)c3n1)CN(C)CC2 [Example 30]
Lookup: Thinking about recorded IC50 values, which is higher, 1 or 2 ? Which one? Tell me its label.
Found: 1

---

Assayed system: HPK1 kinase (Homo sapiens (Human))
Property name: IC50

See these solved cases before continuing.
entry_smiles=COc1nc2c(cc1Nc1ncc3ccnc(N4CCCCC4)c3n1)CN(C)CC2 property_name=IC50 observed_measurement="0.52 nM"
entry_smiles=COc1nc2c(cc1Nc1ncc3cccc(N4Cc5ccccc5C4=O)c3n1)CN(C)CC2 property_name=IC50 observed_measurement="3.61 nM"
entry_smiles=CN1CCc2[nH]c(=O)c(Nc3ncc4ccnc(C5=CCCCC5)c4n3)cc2C1 property_name=IC50 observed_measurement="< 0.1 nM"
entry_smiles=COc1cccc(F)c1-c1cccc2cnc(Nc3cc4c(nc3OC)CCN(C)C4)nc12 property_name=IC50 observed_measurement="< 0.1 nM"
entry_smiles=COc1nc2c(cc1Nc1ncc3ccnc(N[C@H]4CCC[C@@H]4O)c3n1)CN(C)CC2 property_name=IC50 observed_measurement="< 0.1 nM"

Shifting focus to the compound that follows.
Lookup: IC50 of CCOc1nc2c(cc1Nc1ncc3ccnc(NCC(C)(C)C)c3n1)CN(C)CC2 on HPK1 kinase (Homo sapiens (Human))?
Found: < 0.1 nM

---

HPK1 kinase (Homo sapiens (Human)) pIC50 data
pIC50: −log10 of the molar value.

Example cases with answers are listed next.
entry_smiles=COc1nc2c(cc1Nc1ncc3cccc(-c4ccccc4OC(F)(F)F)c3n1)CN(C)CC2 assayed_system="HPK1 kinase (Homo sapiens (Human))" observed_measurement="> 10.00"
entry_smiles=COc1nc2c(cc1Nc1ncc3cccc(-c4ccc5c(cnn5C)c4)c3n1)CN(C)CC2 assayed_system="HPK1 kinase (Homo sapiens (Human))" observed_measurement="> 10.00"
entry_smiles=Cn1c2c(cc(Nc3ncc4ccnc(N5CCCCC5)c4n3)c1=O)CN(CCO)CC2 assayed_system="HPK1 kinase (Homo sapiens (Human))" observed_measurement=9.80
entry_smiles=COc1nc2c(cc1Nc1ncc3ccnc(N[C@@H]4CC[C@@H](O)C4)c3n1)CN(C)CC2 assayed_system="HPK1 kinase (Homo sapiens (Human))" observed_measurement="> 10.00"
entry_smiles=CCOc1nc2c(cc1Nc1ncc3cccc(-c4c(C)nn(C)c4C)c3n1)CN(C)CC2 assayed_system="HPK1 kinase (Homo sapiens (Human))" observed_measurement=7.63

Lookup: I am curious: what pIC50 value has been reported for COc1nc2c(cc1Nc1ncc3cccc(-c4ccccc4F)c3n1)CN(C)CC2 ?
Found: > 10.00

Lookup: What do you have for Cn1c2c(cc(Nc3ncc4ccnc(N5CCC(F)(F)CC5)c4n3)c1=O)CN(CCO)CC2 ?
Found: > 10.00

Lookup: Input COc1ccccc1-c1nccc2cnc(Nc3cc4c([nH]c3=O)CCN(C)C4)nc12
Found: 7.64

---

Record type: IC50 measurement. Applies to: UniProt Q92918
Property name: IC50 (nM)

entry_smiles=CCOc1nc2c(cc1Nc1ncc3cccc(-c4ccc(=O)n(C)c4)c3n1)CN(C)CC2 unit=nM observed_measurement=21.7

A: COc1nc2c(cc1Nc1ncc3cccc(-c4ccc(=O)n(C)c4)c3n1)CN(C)CC2
B: CN1CCc2c(cc(Nc3ncc4ccnc(N5CCCCCC5)c4n3)c(=O)n2C)C1
Lookup: When A and B are compared, which has the higher number for IC50? Mark your selection by writing its label.
Found: A
(A: 1.48 nM, B: 0.61 nM)
